- experimental.target: FLT3-D835Y mutant kinase (Homo sapiens, UniProt P36888, D835Y)
- Construct: purchased SignalChem
- experiment.summary: FLT3-D835Y mutant kinase assay (AlphaScreen)
- Assay type: biochemical
- condition.notes: read-out: Ranking of IC50 values, FLT3-D835Y
pIC50: −log10 of the molar value.
assay.endpoint: pIC50

Data request: Reported pIC50, molecule Cn1ncc2ccc(-c3n[nH]c4c3Cc3sc(-c5ccc(CN6CCCC6=O)cc5)cc3-4)cc21 : ____
Data returned: 8.00 to 9.00

Data request: Reported pIC50, molecule Cn1ncc2ccc(-c3n[nH]c4c3Cc3sc(-c5ccc(S(=O)(=O)N6CCOCC6)cc5)cc3-4)cc21 : ____
Data returned: > 9.00

Data request: Reported pIC50, molecule Cn1ncc2ccc(-c3n[nH]c4c3Cc3sc(-c5ccc(CN6CCOCC6)c(C(F)(F)F)c5)cc3-4)cc21 : ____
Data returned: 8.00 to 9.00

Data request: Reported pIC50, molecule Cn1ncc2ccc(-c3n[nH]c4c3Cc3sc(-c5ccnc(Cl)c5)cc3-4)cc21 : ____
Data returned: 8.00 to 9.00

Data request: Reported pIC50, molecule CC(C)Cn1ncc2ccc(-c3n[nH]c4c3Cc3sc(-c5ccc(CN6CCOCC6)cc5)cc3-4)cc21 : ____
Data returned: 8.00 to 9.00

Data request: Reported pIC50, molecule CN1CCN(Cc2cccc(-c3cc4c(s3)Cc3c(-c5ccc6cnn(C)c6c5)n[nH]c3-4)c2)CC1 : ____
Data returned: 8.00 to 9.00

Data request: Reported pIC50, molecule COc1cc(-c2cc3c(s2)Cc2c(-c4ccc5cnn(C)c5c4)n[nH]c2-3)ccc1CN1CCOCC1 : ____
Data returned: > 9.00

Data request: Reported pIC50, molecule Cn1ncc2ccc(-c3n[nH]c4c3Cc3sc(-c5csc(C(=O)N6CCOCC6)n5)cc3-4)cc21 : ____
Data returned: > 9.00

Data request: Reported pIC50, molecule Cn1ncc2ccc(-c3n[nH]c4c3Cc3sc(-c5cc(F)c(CN6CCOCC6)c(F)c5)cc3-4)cc21 : ____
Data returned: 8.00 to 9.00

Data request: Reported pIC50, molecule Cn1ncc2ccc(-c3n[nH]c4c3Cc3sc(-c5ccc(CN6CCC6)cc5)cc3-4)cc21 : ____
Data returned: > 9.00

Data request: Reported pIC50, molecule Cn1ncc2ccc(-c3n[nH]c4c3Cc3sc(-c5cnc(C(=O)N6CCOCC6)nc5)cc3-4)cc21 : ____
Data returned: 8.00 to 9.00

Data request: Reported pIC50, molecule CN(C)C(=O)c1ccc(-c2cc3c(s2)Cc2c(-c4ccc5cnn(C)c5c4)n[nH]c2-3)cc1 : ____
Data returned: > 9.00

Data request: Reported pIC50, molecule Cn1ncc2ccc(-c3n[nH]c4c3Cc3sc(-c5ccc(CN6CCC(F)(F)C6)cc5)cc3-4)cc21 : ____
Data returned: 8.00 to 9.00

Data request: Reported pIC50, molecule Cn1ncc2ccc(-c3n[nH]c4c3Cc3sc(-c5cccc(CN6CCOCC6)c5)cc3-4)cc21 : ____
Data returned: 8.00 to 9.00

Data request: Reported pIC50, molecule Cn1ncc2ccc(-c3n[nH]c4c3Cc3sc(-c5cnc(N)nc5)cc3-4)cc21 : ____
Data returned: > 9.00

Data request: Reported pIC50, molecule Brc1n[nH]c2cc(-c3n[nH]c4c3Cc3sc(-c5ccc(CN6CCOCC6)cc5)cc3-4)ccc12 : ____
Data returned: 8.00 to 9.00

Data request: Reported pIC50, molecule Cn1ncc2ccc(-c3n[nH]c4c3Cc3sc(C5=CCN(C(=O)N6CCOCC6)CC5)cc3-4)cc21 : ____
Data returned: > 9.00

Data request: Reported pIC50, molecule Cn1ncc2ccc(-c3n[nH]c4c3Cc3sc(-c5ccc(CN6CCC(N7CCOCC7)CC6)cc5)cc3-4)cc21 : ____
Data returned: > 9.00

Data request: Reported pIC50, molecule COc1cc(CN2CCOCC2)ccc1-c1cc2c(s1)Cc1c(-c3ccc4cnn(C)c4c3)n[nH]c1-2 : ____
Data returned: > 9.00

Data request: Reported pIC50, molecule Cn1ncc2ccc(-c3n[nH]c4c3Cc3sc(-c5ccc(CN6CC7(COC7)C6)cc5)cc3-4)cc21 : ____
Data returned: > 9.00

Data request: Reported pIC50, molecule CN(c1ccc(-c2cc3c(s2)Cc2c(-c4ccc5cnn(C)c5c4)n[nH]c2-3)cc1)C1CCOCC1 : ____
Data returned: 8.00 to 9.00

Data request: Reported pIC50, molecule Cn1ncc2ccc(-c3n[nH]c4c3Cc3sc(-c5ccc(CN6CCOCC6=O)cc5)cc3-4)cc21 : ____
Data returned: > 9.00

Data request: Reported pIC50, molecule Cn1ncc2ccc(-c3n[nH]c4c3Cc3sc(-c5ccc(OCCN6CCOCC6)cc5)cc3-4)cc21 : ____
Data returned: > 9.00

Data request: Reported pIC50, molecule Cn1ncc2ccc(-c3n[nH]c4c3Cc3sc(-c5ccc(CCN6CCOCC6)cc5)cc3-4)cc21 : ____
Data returned: 8.00 to 9.00

====

- Test system: MV4-11 human acute myeloid leukemia cell with FLT3-ITD mutation
- experiment.summary: MV4-11 cell proliferation assay (CellTiter 96)
- Assay type: cell-based
- condition.notes: Homo sapiens, MV4-11, 72 h, MV4-11 cells, 72 hours treatment, CellTiter96; read-out: anti-proliferation activity MV4-11 (FLT3-ITD), IC50 ranking
assay.endpoint: IC50

Data request: Reported IC50, compound C[C@@H]1CN(Cc2ccc(-c3cc4c(s3)Cc3c(-c5ccc6cnn(C)c6c5)n[nH]c3-4)cn2)C[C@H](C)O1 : ____
Data returned: < 30 nM

Data request: Reported IC50, compound Cn1ncc2ccc(-c3n[nH]c4c3Cc3sc(-c5ccc(CN6CCCCC6=O)cc5)cc3-4)cc21 : ____
Data returned: < 30 nM

Data request: Reported IC50, compound Cn1ncc2ccc(-c3n[nH]c4c3Cc3sc(-c5ccnc(Cl)c5)cc3-4)cc21 : ____
Data returned: 30 to 100 nM

Data request: Reported IC50, compound Cn1ncc2ccc(-c3n[nH]c4c3Cc3sc(-c5ccc(OCCN6CCOCC6)cc5)cc3-4)cc21 : ____
Data returned: < 30 nM

Data request: Reported IC50, compound Cn1ncc2ccc(-c3n[nH]c4c3Cc3sc(-c5cccc(CN6CCOCC6)c5)cc3-4)cc21 : ____
Data returned: 30 to 100 nM

Data request: Reported IC50, compound Cn1ncc2ccc(-c3n[nH]c4c3Cc3sc(-c5csc(CN6CCOCC6)c5)cc3-4)cc21 : ____
Data returned: < 30 nM

Data request: Reported IC50, compound Cn1ncc2ccc(-c3n[nH]c4c3Cc3sc(-c5ccc(CN6CCOCC6)c(C(F)(F)F)c5)cc3-4)cc21 : ____
Data returned: 300 to 1000 nM

Data request: Reported IC50, compound Cn1ncc2ccc(-c3n[nH]c4c3Cc3sc(-c5ccc(CN6CCC6)cc5)cc3-4)cc21 : ____
Data returned: < 30 nM

Data request: Reported IC50, compound Cn1ncc2ccc(-c3n[nH]c4c3Cc3sc(-c5ccc(NC6CCOCC6)cc5)cc3-4)cc21 : ____
Data returned: 30 to 100 nM

====

- experimental.target: FLT3 kinase (Homo sapiens)
- Construct: purchased SignalChem
- experiment.summary: FLT3 kinase assay (AlphaScreen)
- Assay type: biochemical
- condition.notes: read-out: Ranking of IC50 values, FLT3
assay.endpoint: IC50

Data request: Reported IC50, compound C[C@@H]1CN(Cc2ccc(-c3cc4c(s3)Cc3c(-c5ccc6cnn(C)c6c5)n[nH]c3-4)cc2)C[C@H](C)O1 : ____
Data returned: < 1 nM

Data request: Reported IC50, compound CN1CCN(C(=O)c2ccc(-c3cc4c(s3)Cc3c(-c5ccc6cnn(C)c6c5)n[nH]c3-4)cc2)CC1 : ____
Data returned: < 1 nM

Data request: Reported IC50, compound Cn1ncc2ccc(-c3n[nH]c4c3Cc3sc(-c5cccc(C(=O)N6CCOCC6)c5)cc3-4)cc21 : ____
Data returned: 1 to 10 nM

Data request: Reported IC50, compound COc1cc(CN2CCOCC2)ccc1-c1cc2c(s1)Cc1c(-c3ccc4cnn(C)c4c3)n[nH]c1-2 : ____
Data returned: < 1 nM

Data request: Reported IC50, compound Cn1ncc2ccc(-c3n[nH]c4c3Cc3sc(-c5ccc(CN6CCOCC6)c(F)c5)cc3-4)cc21 : ____
Data returned: 1 to 10 nM

Data request: Reported IC50, compound C[C@@H]1CN(Cc2ccc(-c3cc4c(s3)Cc3c(-c5ccc6cn[nH]c6c5)n[nH]c3-4)cn2)C[C@H](C)O1 : ____
Data returned: < 1 nM

Data request: Reported IC50, compound Cn1ncc2ccc(-c3n[nH]c4c3Cc3sc(-c5ccc(CC6CCOCC6)cc5)cc3-4)cc21 : ____
Data returned: 1 to 10 nM

Data request: Reported IC50, compound Cn1ncc2ccc(-c3n[nH]c4c3Cc3sc(-c5ccc(CN6CCNC(=O)C6)cc5)cc3-4)cc21 : ____
Data returned: 1 to 10 nM
